Tested on: 323965-272-R-J2-PDC complex spheroid viability
Experiment: Anticancer human tumor 323965-272-R-J2-PDC patient-derived pancreatic carcinoma cell line growth inhibition [CLK]; active = viability on the fitted dose curve at most 10% of control; inactive = the rest
Conditions: second compound 1 µM; first compound 0.03 µM
Excerpt: A high-throughput screen of multi-cell type tumor spheroids was designed to identify active combinations of […] and targeted small molecules. Complex spheroids include a stromal component modeled by human endothelial cells (HUVEC) and fibroblasts modeled by human mesenchymal stem cells (MSCs). […] Compounds. […] If the clinical Cmax for an agent had not been determined, the highest concentration tested was 10 microM. […]
Lab note: assign the record to one of active, inactive

{"columns": ["compound", "test-system", "discrete-label"],
 "data": [
  ["C=CC(=O)Nc1cc(Nc2nccc(-c3cn(C)c4ccccc34)n2)c(OC)cc1N(C)CCN(C)C + CNC(=O)c1ccc(Nc2nc(OC3CCCC3)c3c(-c4ccc5nc(C)oc5c4)c[nH]c3n2)c(OC)c1", "323965-272-R-J2-PDC complex spheroid viability", "inactive"],
  ["CC(C)CC(NC(=O)C(Cc1ccccc1)NC(=O)c1cnccn1)B(O)O (stereo unspecified) + CNC(=O)c1ccc(Nc2nc(OC3CCCC3)c3c(-c4ccc5nc(C)oc5c4)c[nH]c3n2)c(OC)c1", "323965-272-R-J2-PDC complex spheroid viability", "active"],
  ["C=CC(=O)Nc1cc(Nc2nccc(-c3cn(C)c4ccccc34)n2)c(OC)cc1N(C)CCN(C)C + CN1CCN(c2cc(C(=O)Nc3cc4cc(-c5cnn(C)c5)ccc4cn3)ccn2)CC1", "323965-272-R-J2-PDC complex spheroid viability", "active"]
]}

[ask] Would you mind telling me which call this test gave NC(=O)C(=Cn1cnc(-c2cc(C(F)(F)F)cc(C(F)(F)F)c2)n1)c1cncnc1 + CN1CCN(c2cc(C(=O)Nc3cc4cc(-c5cnn(C)c5)ccc4cn3)ccn2)CC1 ?
[reply] active

[ask] One more compound: NC(=O)C(=Cn1cnc(-c2cc(C(F)(F)F)cc(C(F)(F)F)c2)n1)c1cncnc1 + CNC(=O)c1ccc(Nc2nc(OC3CCCC3)c3c(-c4ccc5nc(C)oc5c4)c[nH]c3n2)c(OC)c1
[reply] inactive

[ask] Consider next the compound CC(C)CC(NC(=O)C(Cc1ccccc1)NC(=O)c1cnccn1)B(O)O (stereo unspecified) + CN1CCN(c2cc(C(=O)Nc3cc4cc(-c5cnn(C)c5)ccc4cn3)ccn2)CC1 in the same way.
[reply] active

----------
Test system: 323965-272-R-J2-PDC complex spheroid viability
Test: Anticancer human tumor 323965-272-R-J2-PDC cell line growth inhibition [CLK];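 also: spheroids exposed to agents for seven days before readout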;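 as to viability, T/C: percent of DMSO vehicle control wells so 100% = untreated growth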
Settings: second compound 10 µM; first compound 0.003 µM; stronger effect = lower value
endpoint: viability, T/C (%)
Give just the number in %; leave the unit off.

{"columns": ["compound", "quantity-unit", "viability, T/C"],
 "data": [
  ["CC(C)CC(NC(=O)C(Cc1ccccc1)NC(=O)c1cnccn1)B(O)O (centres undefined) + CN1CCN(c2cc(C(=O)Nc3cc4cc(-c5cnn(C)c5)ccc4cn3)ccn2)CC1", "%", 2.17],
  ["C=CC(=O)Nc1cc(Nc2nccc(-c3cn(C)c4ccccc34)n2)c(OC)cc1N(C)CCN(C)C + CNC(=O)c1ccc(Nc2nc(OC3CCCC3)c3c(-c4ccc5nc(C)oc5c4)c[nH]c3n2)c(OC)c1", "%", 39.3],
  ["C=CC(=O)Nc1cc(Nc2nccc(-c3cn(C)c4ccccc34)n2)c(OC)cc1N(C)CCN(C)C + CN1CCN(c2cc(C(=O)Nc3cc4cc(-c5cnn(C)c5)ccc4cn3)ccn2)CC1", "%", 4.64]
]}

We next turn to a different compound, shown below.
[ask] # input compound: CC(C)CC(NC(=O)C(Cc1ccccc1)NC(=O)c1cnccn1)B(O)O (centres undefined) + CNC(=O)c1ccc(Nc2nc(OC3CCCC3)c3c(-c4ccc5nc(C)oc5c4)c[nH]c3n2)c(OC)c1 ; wanted: its viability, T/C
[reply] 24.5

----------
Test system: 323965-272-R-J2-PDC complex spheroid viability
Assay: Anticancer human tumor 323965-272-R-J2-PDC cell line growth inhibition [CLK];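 also: spheroids exposed to agents for seven days before readout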;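 as to viability, T/C: percent of DMSO vehicle control wells so 100% = untreated growth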
Conditions: second compound 0.1 µM; first compound 0.316 µM; stronger effect = lower value
endpoint: viability, T/C (%)
Hi! Could you send only the number? It should be in %, unit omitted.

{"columns": ["molecule", "quantity-unit", "viability, T/C"],
 "data": [
  ["CCN1CCN(Cc2ccc(Nc3ncc(F)c(-c4cc(F)c5nc(C)n(C(C)C)c5c4)n3)nc2)CC1 + CN1CCN(c2cc(C(=O)Nc3cc4cc(-c5cnn(C)c5)ccc4cn3)ccn2)CC1", "%", 59.7],
  ["CC1COCCN1c1cc(C2(S(C)(=N)=O)CC2)nc(-c2ccnc3[nH]ccc23)n1 (stereo not given) + CNC(=O)c1ccc(Nc2nc(OC3CCCC3)c3c(-c4ccc5nc(C)oc5c4)c[nH]c3n2)c(OC)c1", "%", 64.2],
  ["CCCS(=O)(=O)Nc1ccc(F)c(C(=O)c2c[nH]c3ncc(-c4ccc(Cl)cc4)cc23)c1F + CNC(=O)c1ccc(Nc2nc(OC3CCCC3)c3c(-c4ccc5nc(C)oc5c4)c[nH]c3n2)c(OC)c1", "%", 97.5],
  ["C=C(F)C(=O)N1CCN(c2nc(OCC3CCCN3C)nc3c2CCN(c2cccc4cccc(Cl)c24)C3)CC1CC#N (stereo not given) + CNC(=O)c1ccc(Nc2nc(OC3CCCC3)c3c(-c4ccc5nc(C)oc5c4)c[nH]c3n2)c(OC)c1", "%", 39.6]
]}

[ask] Which viability, T/C value is on record for Nc1ccn(C2OC(CO)C(O)C2(F)F)c(=O)n1 (stereo not given) + CNC(=O)c1ccc(Nc2nc(OC3CCCC3)c3c(-c4ccc5nc(C)oc5c4)c[nH]c3n2)c(OC)c1 ?
[reply] 26

----------
Test system: 323965-272-R-J2-PDC complex spheroid viability
Test: Anticancer human tumor 323965-272-R-J2-PDC cell line growth inhibition [CLK];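 also: spheroids exposed to agents for seven days before readout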;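 as to viability, T/C: percent of DMSO vehicle control wells so 100% = untreated growth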
Settings: second compound 1 µM; first compound 0.0316 µM; stronger effect = lower value
Below, each entry is listed with its recorded viability, T/C.

The cases that follow already have their viability, T/C on record.
{"columns": ["compound", "result"],
 "data": [
  ["CC(Nc1ccc2c(c1)OCCn1cc(N3C(=O)OCC3C(F)F)nc1-2)C(N)=O (stereo not drawn) + CNC(=O)c1ccc(Nc2nc(OC3CCCC3)c3c(-c4ccc5nc(C)oc5c4)c[nH]c3n2)c(OC)c1", "43.4%"],
  ["CCN1CCN(Cc2ccc(Nc3ncc(F)c(-c4cc(F)c5nc(C)n(C(C)C)c5c4)n3)nc2)CC1 + CN1CCN(c2cc(C(=O)Nc3cc4cc(-c5cnn(C)c5)ccc4cn3)ccn2)CC1", "3.71%"]
]}

[ask] I have this compound here, Nc1ccn(C2OC(CO)C(O)C2(F)F)c(=O)n1 (stereo not drawn) + CNC(=O)c1ccc(Nc2nc(OC3CCCC3)c3c(-c4ccc5nc(C)oc5c4)c[nH]c3n2)c(OC)c1 , and I need its recorded viability, T/C.
[reply] 24.2%

----------
Test system: 323965-272-R-J2-PDC complex spheroid viability
Assay: Anticancer human tumor 323965-272-R-J2-PDC cell line growth inhibition [CLK];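 also: spheroids exposed to agents for seven days before readout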
Conditions: curve of first compound; second compound 0.316 µM
pIC50: −log10 of the molar value.
Here the recorded pIC50 is given for each entry.

[ask] Look at this compound and give its reported pIC50. COc1c(OCCCN2CCOCC2)ccc2c3n(c(=NC(=O)c4cnc(N)nc4)nc12)CCN3 + CNC(=O)c1ccc(Nc2nc(OC3CCCC3)c3c(-c4ccc5nc(C)oc5c4)c[nH]c3n2)c(OC)c1
[reply] 7.79

[ask] Same again, this time with O=c1[nH]cc(F)c(=O)[nH]1 + CNC(=O)c1ccc(Nc2nc(OC3CCCC3)c3c(-c4ccc5nc(C)oc5c4)c[nH]c3n2)c(OC)c1
[reply] 5.72

[ask] Cn1ncnc1[C@H]1c2n[nH]c(=O)c3cc(F)cc(c23)N[C@@H]1c1ccc(F)cc1 + CN1CCN(c2cc(C(=O)Nc3cc4cc(-c5cnn(C)c5)ccc4cn3)ccn2)CC1 , same question.
[reply] > 9.50

[ask] Ok, now COc1c(OCCCN2CCOCC2)ccc2c3n(c(=NC(=O)c4cnc(N)nc4)nc12)CCN3 + CN1CCN(c2cc(C(=O)Nc3cc4cc(-c5cnn(C)c5)ccc4cn3)ccn2)CC1
[reply] > 8.50

[ask] O=C(c1cc(Cc2n[nH]c(=O)c3ccccc23)ccc1F)N1CCN(C(=O)C2CC2)CC1 + CN1CCN(c2cc(C(=O)Nc3cc4cc(-c5cnn(C)c5)ccc4cn3)ccn2)CC1 , same question.
[reply] > 7.50

[ask] Next compound up: CCN1CCN(Cc2ccc(Nc3ncc(F)c(-c4cc(F)c5nc(C)n(C(C)C)c5c4)n3)nc2)CC1 + CN1CCN(c2cc(C(=O)Nc3cc4cc(-c5cnn(C)c5)ccc4cn3)ccn2)CC1
[reply] > 8.50

[ask] Similarly, C#Cc1c(F)ccc2cc(O)cc(-c3ncc4c(N5CC6CCC(C5)N6)nc(OCC56CCCN5CC(F)C6)nc4c3F)c12 (stereo unspecified) + CN1CCN(c2cc(C(=O)Nc3cc4cc(-c5cnn(C)c5)ccc4cn3)ccn2)CC1 ?
[reply] > 7.50

[ask] Next up: O=c1[nH]cc(F)c(=O)[nH]1 + CN1CCN(c2cc(C(=O)Nc3cc4cc(-c5cnn(C)c5)ccc4cn3)ccn2)CC1
[reply] > 7.50

[ask] Another: C=CC(=O)N1CCN(c2nc(=O)n(-c3c(C)ccnc3C(C)C)c3nc(-c4c(O)cccc4F)c(F)cc23)C(C)C1 (stereo unspecified) + CNC(=O)c1ccc(Nc2nc(OC3CCCC3)c3c(-c4ccc5nc(C)oc5c4)c[nH]c3n2)c(OC)c1
[reply] > 7.50

[ask] Same for CC1COCCN1c1cc(C2(S(C)(=N)=O)CC2)nc(-c2ccnc3[nH]ccc23)n1 (stereo unspecified) + CN1CCN(c2cc(C(=O)Nc3cc4cc(-c5cnn(C)c5)ccc4cn3)ccn2)CC1
[reply] > 7.50

[ask] What would you report for COC1C=CCC(C)C(C)S(=O)(=O)NC(=O)c2ccc3c(c2)N(CC2CCC21)CC1(CCCc2cc(Cl)ccc21)CO3 (stereo unspecified) + CNC(=O)c1ccc(Nc2nc(OC3CCCC3)c3c(-c4ccc5nc(C)oc5c4)c[nH]c3n2)c(OC)c1 ?
[reply] 6.24

The values you see were collected from PubChem BioAssay AID2060619.
